# target-or-system: Bifunctional dihydrofolate reductase-thymidylate synthase (Trypanosoma brucei brucei)
# Sequence (Q27783 whole entry): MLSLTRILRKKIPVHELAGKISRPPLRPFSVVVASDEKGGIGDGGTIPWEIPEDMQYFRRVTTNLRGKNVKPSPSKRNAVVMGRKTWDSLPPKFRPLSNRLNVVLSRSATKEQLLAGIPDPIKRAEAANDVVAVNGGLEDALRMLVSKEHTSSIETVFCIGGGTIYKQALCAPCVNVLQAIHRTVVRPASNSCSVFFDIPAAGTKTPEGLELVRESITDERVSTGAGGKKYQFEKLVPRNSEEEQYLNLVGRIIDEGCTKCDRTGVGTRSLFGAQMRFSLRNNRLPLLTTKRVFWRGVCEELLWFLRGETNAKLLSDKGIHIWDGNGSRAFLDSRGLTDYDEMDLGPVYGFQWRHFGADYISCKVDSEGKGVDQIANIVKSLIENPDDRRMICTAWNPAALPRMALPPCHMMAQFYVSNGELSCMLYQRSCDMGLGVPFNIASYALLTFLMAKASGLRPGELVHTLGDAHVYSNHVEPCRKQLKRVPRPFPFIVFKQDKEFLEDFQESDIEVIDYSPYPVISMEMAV
# measurement-notes: Inhibition of recombinant Trypanosoma brucei DHFR-TS expressed in Escherichia coli BL21 (DE3) cells using dihydrofolate as substrate in presence of NADPH by spectrophotometric analysis
Record form. Attribute: pIC50. Fill in for each entry.
Hey, just a heads up that pIC50 is the negative log base 10 of the concentration in molar.

Fill in the recorded pIC50 for this compound, with Bifunctional dihydrofolate reductase-thymidylate synthase (Trypanosoma brucei brucei) as test system: CCN(Cc1cnc2nc(N)nc(N)c2n1)c1ccc(C(=O)c2ccccc2)cc1
6.47

Also need COC(=O)C1CCN(C(=O)c2ccc(N(CCO)Cc3cnc4nc(N)nc(N)c4n3)cc2)CC1 , thanks.
5.90

Also need CCN(Cc1cnc2nc(N)nc(N)c2n1)c1ccc(C(=O)N2CCC(C(=O)OC)CC2)cc1 , thanks.
6.21

Also need NC(=O)C1CCCN1C(=O)Cc1ccc(N(CCCO)Cc2cnc3nc(N)nc(N)c3n2)cc1 (centres undefined) , thanks.
6.23

Also need COC(=O)C1CCN(C(=O)c2ccc(N(Cc3ccccc3)Cc3cnc4nc(N)nc(N)c4n3)cc2)CC1 , thanks.
5.92

Also need C#CCN(Cc1cnc2nc(N)nc(N)c2n1)c1ccc(C(=O)N2CCC(C(=O)OC)CC2)cc1 , thanks.
5.93

Also need CCOC(=O)C1CCN(C(=O)c2ccc(N(C)Cc3cnc4nc(N)nc(N)c4n3)cc2)CC1 , thanks.
5.05

Also need CCCOC(=O)C1CCN(C(=O)c2ccc(N(C)Cc3cnc4nc(N)nc(N)c4n3)cc2)CC1 , thanks.
5.52

Also need Nc1nc(N)c2nc(CNc3ccc(C(=O)N4CCC(C(=O)O)CC4)cc3)cnc2n1 , thanks.
5.86

###

# target-or-system: Bifunctional dihydrofolate reductase-thymidylate synthase (Trypanosoma brucei brucei)
# measurement-notes: Inhibition of recombinant Trypanosoma brucei DHFR-TS expressed in Escherichia coli BL21 (DE3) cells using dihydrofolate as substrate in presence of NADPH by spectrophotometric analysis
Record form. Attribute: IC50. Fill in for each entry.
State just the number; it will be interpreted in nM.

// query IC50 value for entry COC(=O)C1CCN(C(=O)c2ccc(NCc3cnc4nc(N)nc(N)c4n3)cc2)CC1
20500

Also need COC(=O)C1CCN(C(=O)Cc2ccc(NCc3cnc4nc(N)nc(N)c4n3)cc2)CC1 , thanks.
620

Also need NC(=O)C1CCN(C(=O)c2ccc(NCc3cnc4nc(N)nc(N)c4n3)cc2)CC1 , thanks.
2900

Also need Nc1nc(N)c2nc(CNc3cccc4ccccc34)cnc2n1 , thanks.
450

Also need COC(=O)C1CCN(C(=O)c2ccc(NCc3cnc4nc(N)nc(N)c4n3)cn2)CC1 , thanks.
2570

###

# Test system: human DHFR versus Trypanosoma brucei DHFR
# measurement-notes: Selectivity index, ratio of IC50 for human DHFR to IC50 for Trypanosoma brucei DHFR
# Type: toxicity
# conditions-used: read-out: Ratio IC50
metric-name: selectivity ratio
Just the number, please, no unit after it.

// query selectivity ratio value for entry COC(=O)C1CCN(C(=O)Cc2ccc(NCc3cnc4nc(N)nc(N)c4n3)cc2)CC1
56

Also need CCN(Cc1cnc2nc(N)nc(N)c2n1)c1ccc(C(=O)N2CCC(C(=O)OC)CC2)cc1 , thanks.
7

Also need Nc1nc(N)c2nc(C(=O)NCc3cccc(C(F)(F)F)c3)cnc2n1 , thanks.
1

Also need CN(Cc1cnc2nc(N)nc(N)c2n1)c1ccc(C(=O)N2CCCCC2)cc1 , thanks.
21

###

# System: A549
# measurement-notes: Cytotoxicity against human A549 cells at 10 uM measured after 48 hrs by Celltiter-Glo assay relative to control
# Format: toxicity, cell-based
# conditions-used: a549, 48 h
metric-name: Activity
# answer = value followed by unit

// query Activity value for entry Nc1nc(N)c2nc(CNc3ccc(C(=O)N4CCC(C(=O)O)CC4)cc3)cnc2n1
0%

Also need Nc1nc(N)c2nc(CNc3ccc(C(=O)NCCc4ccccc4)cc3)cnc2n1 , thanks.
100%

Also need COC(=O)C1CCN(C(=O)Cc2ccc(NCc3cnc4nc(N)nc(N)c4n3)cc2)CC1 , thanks.
100%

Also need Nc1nc(N)c2nc(C(=O)NCc3ccccc3)cnc2n1 , thanks.
100%

Also need COC(=O)C1CCN(C(=O)c2ccc(N(C)Cc3cnc4nc(N)nc(N)c4n3)cc2)CC1 , thanks.
100%

Also need COC(=O)C1CCN(C(=O)c2ccc(NCc3cnc4nc(N)nc(N)c4n3)cc2)CC1 , thanks.
100%

Also need CCN(Cc1cnc2nc(N)nc(N)c2n1)c1ccc(C(=O)c2ccccc2)cc1 , thanks.
0%

Also need CCN(Cc1cnc2nc(N)nc(N)c2n1)c1ccc(C(=O)N2CCC(C(=O)OC)CC2)cc1 , thanks.
100%

Also need COC(=O)C1CCN(C(=O)c2ccc(N(CCO)Cc3cnc4nc(N)nc(N)c4n3)cc2)CC1 , thanks.
100%

Also need CCCOC(=O)C1CCN(C(=O)c2ccc(N(C)Cc3cnc4nc(N)nc(N)c4n3)cc2)CC1 , thanks.
0%

Also need COC(=O)C1CCN(C(=O)c2ccc(N(CCCO)Cc3cnc4nc(N)nc(N)c4n3)cc2)CC1 , thanks.
100%

###

Record form. Attribute: selectivity ratio. Fill in for each entry.
# Tested on: human DHFR versus Trypanosoma brucei PTR1
# measurement-notes: Selectivity index, ratio of IC50 for human DHFR to IC50 for Trypanosoma brucei PTR1
# Type: toxicity
# conditions-used: read-out: Ratio IC50
Just the number, please, no unit after it.

// query selectivity ratio value for entry C#CCN(Cc1cnc2nc(N)nc(N)c2n1)c1ccc(C(=O)N2CCC(C(=O)OC)CC2)cc1
1950

Also need Nc1nc(N)c2nc(CNc3ccc(C(=O)c4ccccc4)cc3)cnc2n1 , thanks.
6020

Also need COc1ccc(Oc2ccc(CNCc3cnc4nc(N)nc(N)c4n3)cc2)cc1 , thanks.
192

Also need CN(Cc1cnc2nc(N)nc(N)c2n1)c1ccc(C(=O)N2CCCCC2)cc1 , thanks.
2980
